These measurements were taken from patent US20060154243A1.

For each of the sequences below, state its Binding of serum SARS-yellow to linear peptides of Orf14 of SARS-CoV TOR2.
test system: serum SARS-yellow; type: binding, human
The reply should be a number, written without any unit.

[ask] Look up Binding of serum SARS-yellow to linear peptides of Orf14 of SARS-CoV TOR2: ILLLEWLAEVVKLPS
[reply] 0.3

[ask] Look up Binding of serum SARS-yellow to linear peptides of Orf14 of SARS-CoV TOR2: EILLLEWLAEVVKLP
[reply] 0.4

[ask] Look up Binding of serum SARS-yellow to linear peptides of Orf14 of SARS-CoV TOR2: KEQHCQKASTQREAE
[reply] 0.2

[ask] Look up Binding of serum SARS-yellow to linear peptides of Orf14 of SARS-CoV TOR2: LLAPHHVVAVIQEIQ
[reply] 0.5

[ask] Look up Binding of serum SARS-yellow to linear peptides of Orf14 of SARS-CoV TOR2: HVVAVIQEIQLLAAV
[reply] 0.4

[ask] Look up Binding of serum SARS-yellow to linear peptides of Orf14 of SARS-CoV TOR2: QHCQKASTQREAEAA
[reply] 0.3

[ask] Look up Binding of serum SARS-yellow to linear peptides of Orf14 of SARS-CoV TOR2: APHHVVAVIQEIQLL
[reply] 0.3

[ask] Look up Binding of serum SARS-yellow to linear peptides of Orf14 of SARS-CoV TOR2: HHVVAVIQEIQLLAA
[reply] 0.4

[ask] Look up Binding of serum SARS-yellow to linear peptides of Orf14 of SARS-CoV TOR2: QREAEAAVKPLLAPH
[reply] 0.2

[ask] Look up Binding of serum SARS-yellow to linear peptides of Orf14 of SARS-CoV TOR2: FLKEQHCQKASTQRE
[reply] 0.2

[ask] Look up Binding of serum SARS-yellow to linear peptides of Orf14 of SARS-CoV TOR2: PCYNFLKEQHCQKAS
[reply] 0.1

[ask] Look up Binding of serum SARS-yellow to linear peptides of Orf14 of SARS-CoV TOR2: EIQLLAAVGEILLLE
[reply] 0.5

[ask] Look up Binding of serum SARS-yellow to linear peptides of Orf14 of SARS-CoV TOR2: AVIQEIQLLAAVGEI
[reply] 2.3

[ask] Look up Binding of serum SARS-yellow to linear peptides of Orf14 of SARS-CoV TOR2: AEAAVKPLLAPHHVV
[reply] 0.8

[ask] Look up Binding of serum SARS-yellow to linear peptides of Orf14 of SARS-CoV TOR2: TQREAEAAVKPLLAP
[reply] 0.2

[ask] Look up Binding of serum SARS-yellow to linear peptides of Orf14 of SARS-CoV TOR2: GEILLLEWLAEVVKL
[reply] 0.3

[ask] Look up Binding of serum SARS-yellow to linear peptides of Orf14 of SARS-CoV TOR2: LAPHHVVAVIQEIQL
[reply] 0.4

[ask] Look up Binding of serum SARS-yellow to linear peptides of Orf14 of SARS-CoV TOR2: VKPLLAPHHVVAVIQ
[reply] 0.4
